Molecular target: T1, rhesus monkey ERBB3 His tag, monomeric (rhesus monkey (Macaca mulatta), UniProt P21860 20-643 (human entry), limits assumed)
T1 chain: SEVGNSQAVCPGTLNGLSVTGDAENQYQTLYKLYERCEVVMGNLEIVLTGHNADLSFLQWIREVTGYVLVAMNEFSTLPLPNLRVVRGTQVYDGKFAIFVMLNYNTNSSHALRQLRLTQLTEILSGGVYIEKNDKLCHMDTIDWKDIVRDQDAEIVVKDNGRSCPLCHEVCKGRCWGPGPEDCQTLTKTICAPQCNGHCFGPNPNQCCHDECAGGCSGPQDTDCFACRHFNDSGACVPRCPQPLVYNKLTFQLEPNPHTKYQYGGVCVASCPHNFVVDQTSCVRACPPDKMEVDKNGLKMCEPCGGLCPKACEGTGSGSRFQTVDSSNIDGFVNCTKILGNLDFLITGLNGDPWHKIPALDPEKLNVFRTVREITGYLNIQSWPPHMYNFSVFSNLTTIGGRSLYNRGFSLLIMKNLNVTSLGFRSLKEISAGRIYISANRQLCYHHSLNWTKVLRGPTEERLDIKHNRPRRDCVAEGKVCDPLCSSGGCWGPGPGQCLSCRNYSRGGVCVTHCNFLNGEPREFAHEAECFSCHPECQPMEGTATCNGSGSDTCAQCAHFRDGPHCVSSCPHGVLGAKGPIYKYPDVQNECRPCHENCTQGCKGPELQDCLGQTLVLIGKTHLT
Experiment: SPR (Biacore), captured IgG, monomeric ERBB3-His analyte
kon listing for selected binders.
observed_property: kon (M⁻¹ s⁻¹)

INSERT INTO measurements (binder, observed_property, recorded_result) VALUES
  ('11H02 IgG1null (antibody, V domains shown, Human IgG1null and human Ckappa) VH: QVQLVESGGGLVKPGGSLRLSCAASGFTFSDYGMSWIRQAPGKGLEWVSTISDSGSYTYYADSVKGRFTISRDNAKNSLYLQMNSLRAEDTAVYYCAREWGDYDGFDNWGQGTLVTVSS VL: DIQMTQSPSSLSASVGDRVTITCRASQIISSYLSWYQQKPGKAPKLLIYAASSLDSGVPSRFSGSGSGTDFTLTISSLQPEDFATYYCLQYYSTPLTFGGGTKVEIK', 'kon', '1.7e+07'),
  ('16B09 IgG1null (antibody, V domains shown, Human IgG1null (L234A, L235A, G237A) and human Ckappa) VH: QVQLVESGGGLVKPGGSLRLSCAASGFTFSDYSMSWIRQAPGKGLEWVSTISDSGTYTYYPDSVKGRFTISRDNAKNSLYLQMNSLRAEDTAVYYCAREWGDYDGFDFWGQGTLVTVSS VL: DIQMTQSPSSLSASVGDRVTITCRASQEISSYLSWYQQKPGKAPKLLIYAASTLQSGVPSRFSGSGSGTDFTLTISSLQPEDFATYYCLQYDSTPLTFGGGTKVEIK', 'kon', '1.3e+07');

These entries and their values trace back to patent US20200339702A1.
